- Target Desc: Human CB2R (Cannabanoid receptor 2) (Homo sapiens (Human))
- Procedure Text: CB-2 in vitro cAMP assay (HTRF)
- Conditions Used: mean where tested more than once
Measurement Label: EC50 (µM)
Only the number, expressed in µM, is required.

NC(=O)c1cccc(CN2CCC(Nc3ncnc4ccc(C(c5ccc(Cl)cc5)c5ccc(Cl)cc5)cc34)CC2)c1 [Compound #36]    3.64

Next item in the queue.
EC50 lookup needed for FC(F)(F)c1ccc(N2CCC(Nc3ncnc4ccc(C(c5ccc(Cl)cc5)c5ccc(Cl)cc5)cc34)CC2)cc1 [compound 129] , thanks.
0.072

* * *

- Procedure Text: Mouse Fast PK/BBB (plasma and brain concentration)
- Format: in vivo, Male C57bl/6j mice
- Conditions Used: male, C57bl/6j, plasma, PO 30 mg/kg, 4 hr, N=3, read-out: PLASMA Mean Conc. ± Std. Dev
Measurement Label: concentration at 4 h (ng/mL)
Only the number, expressed in ng/mL, is required.

concentration at 4 h lookup needed for OCC(CO)(CO)COc1nc(NCc2cccc(C(F)(F)F)c2)c2cc(C(c3ccc(Cl)cc3)c3ccc(Cl)cc3)ccc2n1 , thanks.
1300

* * *

- Procedure Text: Mouse Fast PK/BBB (plasma and brain concentration)
- Type: in vivo, Male C57bl/6j mice
- Conditions Used: male, C57bl/6j, brain, PO 20 mg/kg, 4 hr, N=3, read-out: BRAIN Mean Conc. ± Std. Dev
Measurement Label: concentration at 4 h

concentration at 4 h lookup needed for FC(F)(F)c1ccc(CNc2ncnc3ccc(C(c4ccc(Cl)cc4)c4ccc(Cl)cc4)cc23)cc1 , thanks.
192 ng/mL

* * *

- Target Desc: Human CB1R (Cannabanoid receptor 1) (Homo sapiens (Human))
- Sequence (P21554 whole entry): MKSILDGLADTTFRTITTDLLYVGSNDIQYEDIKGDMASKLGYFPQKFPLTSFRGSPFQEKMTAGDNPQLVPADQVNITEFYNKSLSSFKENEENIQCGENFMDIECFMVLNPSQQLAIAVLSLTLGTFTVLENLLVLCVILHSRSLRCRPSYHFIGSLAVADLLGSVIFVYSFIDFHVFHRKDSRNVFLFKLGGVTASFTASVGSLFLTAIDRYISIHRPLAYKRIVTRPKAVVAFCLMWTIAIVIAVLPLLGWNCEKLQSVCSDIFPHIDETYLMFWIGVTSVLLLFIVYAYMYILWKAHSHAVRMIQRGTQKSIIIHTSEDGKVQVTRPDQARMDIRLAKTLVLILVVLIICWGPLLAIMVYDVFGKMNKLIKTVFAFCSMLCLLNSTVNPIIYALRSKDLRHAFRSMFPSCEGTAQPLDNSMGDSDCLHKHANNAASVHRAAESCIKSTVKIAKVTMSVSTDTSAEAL
- Procedure Text: CB-1 in vitro cAMP assay (HTRF)
- Conditions Used: mean where tested more than once
pEC50: −log10 of the molar value.
Label yes (1) when pEC50 >= 8; otherwise no (0).

NC(=O)CS(=O)(=O)N1CCC(Nc2ncnc3ccc(C(c4ccc(Cl)cc4)c4ccc(Cl)cc4)cc23)CC1    no (0)
O=C(O)c1ccc(S(=O)(=O)N2CCC(Nc3ncnc4ccc(C(c5ccc(Cl)cc5)c5ccc(Cl)cc5)cc34)CC2)cc1Cl    no (0)
CCOC(=O)CCC(=O)N1CCC(Nc2ncnc3ccc(C(c4ccc(Cl)cc4)c4ccc(Cl)cc4)cc23)CC1    yes (1)
O=C(O)c1ccc(S(=O)(=O)N2CCC(Nc3nc(OCCO)nc4ccc(C(c5ccc(Cl)cc5)c5ccc(Cl)cc5)cc34)CC2)cc1    no (0)

We next turn to a different compound, shown below.
Hi, just wondering whether COc1nc(NC2CCN(S(=O)(=O)c3ccc(C(=O)O)cc3)CC2)c2cc(C(c3ccc(Cl)cc3)c3ccc(Cl)cc3)ccc2n1 shows pEC50 of 8 or higher.
no (0)

* * *

- Target Desc: Human CB2R (Cannabanoid receptor 2) (Homo sapiens (Human), UniProt P34972)
- Sequence (P34972 whole entry): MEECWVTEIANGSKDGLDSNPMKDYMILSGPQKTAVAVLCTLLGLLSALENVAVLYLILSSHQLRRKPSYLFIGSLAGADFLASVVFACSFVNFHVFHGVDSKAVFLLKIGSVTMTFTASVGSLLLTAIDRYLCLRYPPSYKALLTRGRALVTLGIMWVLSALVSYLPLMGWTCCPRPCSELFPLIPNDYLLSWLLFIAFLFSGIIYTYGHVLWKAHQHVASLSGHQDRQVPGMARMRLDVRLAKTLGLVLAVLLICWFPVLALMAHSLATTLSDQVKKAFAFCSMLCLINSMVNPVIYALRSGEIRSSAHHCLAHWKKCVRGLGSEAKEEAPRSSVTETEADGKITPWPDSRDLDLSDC
- Procedure Text: CB-2 in vitro cAMP assay (HTRF)
- Conditions Used: mean where tested more than once
# EC50 per entry
Only the number, expressed in µM, is required.

Would you please look over these solved cases?
NC(=O)c1cccc(N2CCC(Nc3ncnc4ccc(C(c5ccc(Cl)cc5)c5ccc(Cl)cc5)cc34)CC2)c1 [compound 96]    0.218
N#Cc1ccc(C(c2ccc(Cl)cc2)c2ccc3ncnc(NC4CCN(S(=O)(=O)C(F)(F)F)CC4)c3c2)cc1 (stereo not shown) [Compound #19]    0.157

Next item in the queue.
Under Human CB2R (Cannabanoid receptor 2) (Homo sapiens (Human), UniProt P34972): EC50 value of O=C(O)c1cccc(CN2CCC(Nc3ncnc4ccc(C(c5ccc(Cl)cc5)c5ccc(Cl)cc5)cc34)CC2)c1 [Compound #37] ?
6.76

* * *

- Target Desc: UniProtKB P34972
- Procedure Text: CB-2 in vitro cAMP assay (HTRF)
- Assay type: cell-based
- Conditions Used: mean where tested more than once
Measurement Label: EC50 (nM)
Only the number, expressed in nM, is required.

Would you please look over these solved cases?
O=S(=O)(c1ccccn1)N1CCC(Nc2ncnc3ccc(C(c4ccc(Cl)cc4)c4ccc(Cl)cc4)cc23)CC1 [compound 111]    2740
O=C(NCCO)c1ccc(N2CCC(Nc3ncnc4ccc(C(c5ccc(Cl)cc5)c5ccc(Cl)cc5)cc34)CC2)cc1 [Compound #84]    326
COC(=O)c1ccc(N2CCC(Nc3ncnc4ccc(C(c5ccc(Cl)cc5)c5ccc(Cl)cc5)cc34)CC2)cc1 [Compound #94]    68

Next item in the queue.
EC50 lookup needed for O=S(=O)(N1CCC(Nc2nc(Cl)nc3ccc(C(c4ccc(Cl)cc4)c4ccc(Cl)cc4)cc23)CC1)C(F)(F)F [Compound 200] , thanks.
6500

* * *

- Target Desc: UniProtKB P34972
- Procedure Text: CB-2 in vitro cAMP assay (HTRF)
- Conditions Used: mean where tested more than once
Under this convention, yes (1) denotes EC50 strictly below 4 µM and no (0) denotes EC50 at or above 4 µM.

O=C(O)COc1ccc(S(=O)(=O)N2CCC(Nc3ncnc4ccc(C(c5ccc(Cl)cc5)c5ccc(Cl)cc5)cc34)CC2)cc1 [Compound #3]    yes (1)
COC(=O)c1ccc(C(=O)N2CCC(Nc3ncnc4ccc(C(c5ccc(Cl)cc5)c5ccc(Cl)cc5)cc34)CC2)cc1 [Compound #73]    no (0)
COc1nc(NC2CCN(S(=O)(=O)c3ccc(C(=O)O)cc3)CC2)c2cc(C(c3ccc(Cl)cc3)c3ccc(Cl)cc3)ccc2n1 [Compound #46]    yes (1)
O=S(=O)(c1ccccc1F)N1CCC(Nc2ncnc3ccc(C(c4ccc(Cl)cc4)c4ccc(Cl)cc4)cc23)CC1 [compound 124]    yes (1)
O=S(=O)(c1ccc(Nc2ncnc3ccc(C(c4ccc(Cl)cc4)c4ccc(Cl)cc4)cc23)cc1)C(F)(F)F [Compound #134]    no (0)
[N-]=[N+]=NCCOc1nc(NCc2ccc(C(F)(F)F)cc2)c2cc(C(c3ccc(Cl)cc3)c3ccc(Cl)cc3)ccc2n1 [Compound #75]    no (0)
NC(=O)c1cccc(CNc2ncnc3ccc(C(c4ccc(Cl)cc4)c4ccc(Cl)cc4)cc23)c1 [Compound #57]    no (0)
COc1nc(NCc2ccc(C(F)(F)F)cc2)c2cc(C(c3ccc(Cl)cc3)c3ccc(Cl)cc3)ccc2n1 [Compound #85]    no (0)

Quick check: does CCS(=O)(=O)N1CCC(Nc2ncnc3ccc(C(c4ccc(Cl)cc4)c4ccc(Cl)cc4)cc23)CC1 [compound 141] have EC50 under 4 µM?
no (0)

Quick check: does NCCCCOc1nc(NCc2cccc(C(F)(F)F)c2)c2cc(C(c3ccc(Cl)cc3)c3ccc(Cl)cc3)ccc2n1 [Compound #31] have EC50 under 4 µM?
no (0)

Quick check: does O=C(NCCCOc1ccc(CO)cc1)c1ccc(S(=O)(=O)N2CCC(Nc3ncnc4ccc(C(c5ccc(Cl)cc5)c5ccc(Cl)cc5)cc34)CC2)cc1 [Compound #26] have EC50 under 4 µM?
no (0)

* * *

# pEC50 per entry
- Target Desc: UniProt P21554
- Procedure Text: CB-1 in vitro cAMP assay (HTRF)
- Conditions Used: mean where tested more than once
pEC50 here is simply -log10 of the concentration when that concentration is written in mol/L.

Would you please look over these solved cases?
NC(=O)c1cccc(N2CCC(Nc3ncnc4ccc(C(c5ccc(Cl)cc5)c5ccc(Cl)cc5)cc34)CC2)c1 [compound 96]    7.64
O=C(O)COc1nc(NCc2cccc(C(F)(F)F)c2)c2cc(C(c3ccc(Cl)cc3)c3ccc(Cl)cc3)ccc2n1 [compound 51]    6.23
Fc1ccc(C(c2ccc(F)cc2)c2ccc3ncnc(NC4CCN(c5ccccc5)CC4)c3c2)cc1 [Compound #67]    9.00
O=C(c1ccc(S(=O)(=O)NCCO)cc1)N1CCC(Nc2ncnc3ccc(C(c4ccc(Cl)cc4)c4ccc(Cl)cc4)cc23)CC1 [Compound #45]    6.65
FC(F)(F)c1ccc(N2CCC(Nc3ncnc4ccc(C(c5ccc(Cl)cc5)c5ccc(Cl)cc5)cc34)CC2)cc1 [compound 129]    8.52

pEC50 lookup needed for NCCOc1nc(NCc2ccc(C(F)(F)F)cc2)c2cc(C(c3ccc(Cl)cc3)c3ccc(Cl)cc3)ccc2n1 [Compound #72] , thanks.
7.29

pEC50 lookup needed for Oc1ccc(CN2CCC(Nc3ncnc4ccc(C(c5ccc(Cl)cc5)c5ccc(Cl)cc5)cc34)CC2)cc1 [compound 27] , thanks.
6.92

pEC50 lookup needed for O=C(O)c1ccccc1CN1CCC(Nc2ncnc3ccc(C(c4ccc(Cl)cc4)c4ccc(Cl)cc4)cc23)CC1 [compound 21] , thanks.
5.32

pEC50 lookup needed for O=S(=O)(N1CCC(Nc2ncnc3ccc(C(c4ccc(Cl)cc4)c4ccc(Br)cc4)cc23)CC1)C(F)(F)F (stereo not drawn) [Compound #20] , thanks.
7.77

pEC50 lookup needed for OCC(CO)COc1nc(NCc2cccc(C(F)(F)F)c2)c2cc(C(c3ccc(Cl)cc3)c3ccc(Cl)cc3)ccc2n1 [Compound #49] , thanks.
8.40

pEC50 lookup needed for C[C@@H](Nc1ncnc2ccc(C(c3ccc(Cl)cc3)c3ccc(Cl)cc3)cc12)c1cccc(C(F)(F)F)c1 (single isomer, unassigned) [compound 115] , thanks.
7.47

pEC50 lookup needed for [N-]=[N+]=NCCOc1nc(NCc2ccc(C(F)(F)F)cc2)c2cc(C(c3ccc(Cl)cc3)c3ccc(Cl)cc3)ccc2n1 [Compound #75] , thanks.
8.30
